B1: glmS ribozyme (parent)
chain: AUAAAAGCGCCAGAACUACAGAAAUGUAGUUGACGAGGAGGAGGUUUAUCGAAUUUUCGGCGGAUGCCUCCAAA

variants of: B1; experiment: self-cleavage kobs at 2500 uM GlcN6P; higher = faster cleavage; RNA array; details: with glucosamine-6-phosphate
Variants at the floor of the assay were thinned out.
Let's look at some variants and their measured self-cleavage kobs at 2500 uM GlcN6P.
measured-attribute: self-cleavage kobs at 2500 uM GlcN6P (s⁻¹)

A12U A36U C50A U69G = 0.000241
G29C U65A = 0.00013
G41C U46G U54C C70G = 0.00908
G40U U47A = 0.00134
A42G A48C = 0.000276
A14U G41A U45A = 0.000195
G29C U55G = 0.000164
A15C A33C = 3.95e-05
A39G G43U = 0.000119
G41U U56C C70G = 0.00166
A15C U30A U31C C71G = 0.000148
C50G U54A U65A = 5.15e-05
